System: Plasmodium falciparum clones 3d7, HB3, Dd2 and 7G8
Test: In vitro IC50, growth of Plasmodium falciparum clones on human red blood cells (SybrGreen DNA fluorescence)
Assay type: cell-based
Conditions: Plasmodium falciparum, Erythrocyte, 72 h, read-out: IC50 artesunate alone, Clone 7G8
Readout name: IC50 (nM)
Field: numeric (nM). Do not append units.

Enquiry: Look up IC50 for this compound: C[C@H]1[C@H](OC(=O)CCC(=O)O)O[C@@H]2O[C@@]3(C)CC[C@H]4[C@H](C)CC[C@@H]1[C@@]24OO3 [artesunate]
Return: 1

---

Test system: Plasmodium falciparum clones 3d7, HB3, Dd2 and 7G8
Experiment: In vitro IC50, growth of Plasmodium falciparum clones on human red blood cells (SybrGreen DNA fluorescence)
Type: cell-based
Conditions: Plasmodium falciparum, Erythrocyte, 72 h, read-out: IC50 carvacrol alone, Clone 3d7
Readout name: pIC50
Quick note: pIC50 means taking -log10 of the concentration in moles per liter.

Enquiry: Give pIC50 (Plasmodium falciparum clones 3d7, HB3, Dd2 and 7G8) of the following compound: Cc1ccc(C(C)C)cc1O
Return: 3.48
